Target: ErbB2 insYVMA (HER2-YVMA, SEQ ID NO: 2) (Homo sapiens, UniProt P04626, INS775YVMA/P1170A)
Sequence (P04626 with tags, fused parts or gaps INS775YVMA/P1170A limits assumed): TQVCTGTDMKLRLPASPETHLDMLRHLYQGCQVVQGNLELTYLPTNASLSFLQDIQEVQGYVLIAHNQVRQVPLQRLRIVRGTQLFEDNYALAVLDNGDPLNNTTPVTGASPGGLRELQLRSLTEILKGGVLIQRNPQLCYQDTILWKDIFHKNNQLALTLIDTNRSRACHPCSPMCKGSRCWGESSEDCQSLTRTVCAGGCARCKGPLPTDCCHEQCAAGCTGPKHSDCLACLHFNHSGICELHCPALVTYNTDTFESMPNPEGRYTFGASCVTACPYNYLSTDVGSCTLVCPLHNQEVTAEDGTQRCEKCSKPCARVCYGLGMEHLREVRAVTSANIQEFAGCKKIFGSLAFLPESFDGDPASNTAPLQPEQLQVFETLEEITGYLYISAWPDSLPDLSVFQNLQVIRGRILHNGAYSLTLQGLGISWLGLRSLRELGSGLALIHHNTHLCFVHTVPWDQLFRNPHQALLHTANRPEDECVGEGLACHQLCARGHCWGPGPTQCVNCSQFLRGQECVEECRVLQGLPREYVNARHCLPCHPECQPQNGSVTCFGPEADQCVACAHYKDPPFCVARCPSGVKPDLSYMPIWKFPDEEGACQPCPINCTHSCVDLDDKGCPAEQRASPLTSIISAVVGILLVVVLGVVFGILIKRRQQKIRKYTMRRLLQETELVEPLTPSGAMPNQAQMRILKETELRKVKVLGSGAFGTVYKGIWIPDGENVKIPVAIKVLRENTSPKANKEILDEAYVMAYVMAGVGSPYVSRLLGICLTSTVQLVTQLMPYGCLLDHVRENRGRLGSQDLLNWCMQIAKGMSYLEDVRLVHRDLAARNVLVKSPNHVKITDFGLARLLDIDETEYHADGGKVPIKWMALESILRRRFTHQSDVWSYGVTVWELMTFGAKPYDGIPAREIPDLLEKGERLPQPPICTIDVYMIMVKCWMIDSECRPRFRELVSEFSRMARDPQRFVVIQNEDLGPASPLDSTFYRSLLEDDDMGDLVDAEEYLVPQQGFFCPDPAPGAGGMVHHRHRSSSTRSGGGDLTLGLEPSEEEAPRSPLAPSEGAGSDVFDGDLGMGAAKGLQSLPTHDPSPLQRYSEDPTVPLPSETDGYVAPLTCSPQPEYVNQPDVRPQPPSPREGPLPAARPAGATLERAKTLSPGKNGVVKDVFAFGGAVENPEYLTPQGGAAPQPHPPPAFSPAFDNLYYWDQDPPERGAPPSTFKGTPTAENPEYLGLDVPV
Assay: biochemical
Settings: ErbB2 insYVMA enzyme assay; read-out: Assay 1 IC50
assay.endpoint: IC50

molecule	experimental.target	val
CN(CC(C)(C)O)c1ncc2ncnc(Nc3ccc(Oc4ccc5c(c4)ncn5C)c(Cl)c3)c2n1	ErbB2 insYVMA (HER2-YVMA, SEQ ID NO: 2) (Homo sapiens, UniProt P04626, INS775YVMA/P1170A)	0.0259 µM
CC1(O)CCN(c2ncc3ncnc(Nc4ccc(Oc5ccn6ncnc6c5)c(Cl)c4)c3n2)CC1	ErbB2 insYVMA (HER2-YVMA, SEQ ID NO: 2) (Homo sapiens, UniProt P04626, INS775YVMA/P1170A)	0.0118 µM
Cc1cc(Nc2ncnc3cnc(N(C)C[C@@H]4COCCO4)nc23)ccc1Oc1ccc2c(c1)ncn2C	ErbB2 insYVMA (HER2-YVMA, SEQ ID NO: 2) (Homo sapiens, UniProt P04626, INS775YVMA/P1170A)	0.0482 µM
Cc1cc(Nc2ncnc3cnc(N4CCOCC4)nc23)ccc1Oc1ccc2c(c1)ncn2C [Example 9, 2,2,2-trifluoroacetate]	ErbB2 insYVMA (HER2-YVMA, SEQ ID NO: 2) (Homo sapiens, UniProt P04626, INS775YVMA/P1170A)	0.0136 µM
Cc1cc(Nc2ncnc3cnc(N4CC[C@](C)(O)C4)nc23)ccc1Oc1ccn2ncnc2c1	ErbB2 insYVMA (HER2-YVMA, SEQ ID NO: 2) (Homo sapiens, UniProt P04626, INS775YVMA/P1170A)	0.0384 µM
Cc1cc(Nc2ncnc3cnc(N(C)[C@@H]4CN(C)C[C@@H]4F)nc23)ccc1Oc1ccc2c(c1)ncn2C	ErbB2 insYVMA (HER2-YVMA, SEQ ID NO: 2) (Homo sapiens, UniProt P04626, INS775YVMA/P1170A)	0.0141 µM
Cc1cc(Nc2ncnc3cnc(N(C)[C@H]4CCCOC4)nc23)ccc1Oc1ccn2ncnc2c1	ErbB2 insYVMA (HER2-YVMA, SEQ ID NO: 2) (Homo sapiens, UniProt P04626, INS775YVMA/P1170A)	0.0189 µM
N#CC[C@H]1CCN(c2ncc3ncnc(Nc4ccc(Oc5ccn6ncnc6c5)c(Cl)c4)c3n2)C1	ErbB2 insYVMA (HER2-YVMA, SEQ ID NO: 2) (Homo sapiens, UniProt P04626, INS775YVMA/P1170A)	0.0166 µM
Cc1cc(Nc2ncnc3cnc(-c4cnsc4)nc23)ccc1Oc1ccc2c(c1)ncn2C	ErbB2 insYVMA (HER2-YVMA, SEQ ID NO: 2) (Homo sapiens, UniProt P04626, INS775YVMA/P1170A)	0.115 µM
Cc1cc(Nc2ncnc3cnc(O[C@H]4CNCC[C@@H]4F)nc23)ccc1Oc1ccc2c(c1)ncn2C	ErbB2 insYVMA (HER2-YVMA, SEQ ID NO: 2) (Homo sapiens, UniProt P04626, INS775YVMA/P1170A)	0.109 µM
CC1(O)CN(c2ncc3ncnc(Nc4ccc(Oc5ccn6ncnc6c5)c(Cl)c4)c3n2)C1	ErbB2 insYVMA (HER2-YVMA, SEQ ID NO: 2) (Homo sapiens, UniProt P04626, INS775YVMA/P1170A)	0.0644 µM
Cc1cc(Nc2ncnc3cnc(N4CCN(C)C4=O)nc23)ccc1Oc1ccc2c(c1)ncn2C	ErbB2 insYVMA (HER2-YVMA, SEQ ID NO: 2) (Homo sapiens, UniProt P04626, INS775YVMA/P1170A)	0.0687 µM
Cc1cc(Nc2ncnc3cnc(N(C)CC(C)(C)O)nc23)ccc1Oc1ccc2c(c1)ncn2C	ErbB2 insYVMA (HER2-YVMA, SEQ ID NO: 2) (Homo sapiens, UniProt P04626, INS775YVMA/P1170A)	0.0282 µM
Cc1cc(Nc2ncnc3cnc(N4CCOC(C)(C)C4)nc23)ccc1Oc1ccc2c(c1)ncn2C	ErbB2 insYVMA (HER2-YVMA, SEQ ID NO: 2) (Homo sapiens, UniProt P04626, INS775YVMA/P1170A)	0.0673 µM
Cc1cc(Nc2ncnc3cnc(N4CC5CC5(C)C4)nc23)ccc1Oc1ccc2c(c1)ncn2C (stereo not shown)	ErbB2 insYVMA (HER2-YVMA, SEQ ID NO: 2) (Homo sapiens, UniProt P04626, INS775YVMA/P1170A)	0.149 µM
Cc1cc(Nc2ncnc3cnc(N(C)CC(C)(C)C#N)nc23)ccc1Oc1ccc2c(c1)ncn2C	ErbB2 insYVMA (HER2-YVMA, SEQ ID NO: 2) (Homo sapiens, UniProt P04626, INS775YVMA/P1170A)	0.0297 µM
